Provenance of the data: paper PMC1277809

Biological target: T1, LexA (DinR) wild type (Bacillus subtilis, UniProt P31080 1-205)
T1 sequence: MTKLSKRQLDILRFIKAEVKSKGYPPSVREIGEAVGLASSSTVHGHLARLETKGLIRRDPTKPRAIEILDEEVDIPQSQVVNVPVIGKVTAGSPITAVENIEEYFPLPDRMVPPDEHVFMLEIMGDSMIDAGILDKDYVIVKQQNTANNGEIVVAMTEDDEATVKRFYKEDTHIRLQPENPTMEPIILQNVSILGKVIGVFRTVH
Assay: competition EMSA

| BINDER | UNIT_ABBREVIATION | Ki |
| --- | --- | --- |
| recA op G2A,T5C (dsDNA) DNA 1: GGGGGGCAAACATGCGTTCGCCCCCC DNA 2: GGGGGGCGAACGCATGTTTGCCCCCC | nM | 5.2 |
